test system: S. aureus MRSA (DSM 11822, ICB 25701); experiment: microbe, parasite or virus in culture; assay type: cell-based, methicillin resistant S. aureus; settings: Staphylococcus aureus, read-out: EC50 MRSA

- molecule-smiles: "CC(C)[n+]1cn(Cc2ccccn2)c2ccccc21.[Cl-]"
  EC50: "> 250 µM"

====

system: K. pneumoniae (DSM 11678, ATCC33495); assay: Broth microdilution antibacterial assay; assay type: cell-based, Klebsiella pneumoniae; settings: Klebsiella pneumoniae, read-out: EC50 K. pneumoniae
pEC50: −log10 of the molar value.
endpoint: pEC50

- molecule-smiles: "CC(C)[n+]1cn(Cc2ccccn2)c2ccccc21.[Cl-]"
  study-target: "K. pneumoniae (DSM 11678, ATCC33495)"
  endpoint: "pEC50"
  result: "< 3.60"
